Assay: Photochromic properties of cast polymer (2 mm thick) under xenon lamp irradiation for 120 seconds
Assay type: physicochemical
Conditions: chromene composition, or other chromene C1-C4, 0.04% by weight in polymer; Table 6
measurement_label: λ max (nm)

compound="Cc1c2c(c3ccccc3c1C)OC(c1ccccc1)(c1ccccc1)C=C2 [Compound C3, reference compound]" numeric_value=480
compound="C1=CC(c2ccccc2)(c2ccccc2)Oc2ccc3ccccc3c21 [Compound C4, 3,3-Diphenyl-3H-benzo(f)chromene, reference compound]" numeric_value=432
compound="C1=CC2(CC3CCC2C3)Oc2c1ccc1ccccc21 (stereo not shown) [Compound C1, reference compound]" numeric_value=450
compound="CCOC(=O)c1c2c(c3ccccc3c1C)OC(c1ccccc1)(c1ccccc1)C=C2 [Compound C2, reference compound]" numeric_value=458

* * *

Recorded Fading rate t1/2 for the following molecules
Experiment: Photochromic properties of cast polymer (2 mm thick) under xenon lamp irradiation for 120 seconds
Assay type: physicochemical
Conditions: single chromene compound 0.04% by weight in polymer, 20° C.; Table 5
Experimental: 0.04% by weight of the chromene compound obtained in Example 1 was added to 70 parts of 4G, 15 parts of 3G, 10 parts of GMA, 5 parts of HEMA and 1 part of perbutyl ND, and was mixed together to a sufficient degree. […] Photochromic polymers were prepared in the same manner as in Example 42 but using the chromene compounds obtained in Examples 2 to 41, and their maximum absorption wavelengths, color densities, fading rates, changes in the coloring degrees and durabilitys were measured. […]
Your answer should be a plain number; it is taken to be in min.

molecule=COc1ccc(C2(c3ccc(OC)cc3)C=Cc3c(C(C)C)cc4ccccc4c3O2)cc1 unit=min numeric_value=3.3
molecule=COc1ccc(C2(c3ccc(OC)cc3)C=Cc3c(C)cc4cc(-c5ccccc5)ccc4c3O2)cc1 unit=min numeric_value=7.2
molecule=CCc1cc2ccccc2c2c1C=CC(c1ccc(OC)cc1)(c1ccc(OC)cc1)O2 unit=min numeric_value=5.5

Query: # Fading rate t1/2 lookup, item CCOc1ccc(C2(c3ccc(OC)cc3)C=Cc3c(CC)cc4c(Cc5ccccc5)cccc4c3O2)cc1 (centres unmarked)
Response: 5.8

Query: Item: CCOC(=O)C1=CC(c2ccccc2)(c2ccccc2)Oc2c1cc(C)c1ccccc21 [b, reference compound]
Response: 14

* * *

Assay: Photochromic properties of cast polymer (2 mm thick) under xenon lamp irradiation for 120 seconds
Type: physicochemical
Settings: single chromene compound 0.04% by weight in polymer, 20° C.; Table 5
measurement_label: Fading rate t1/2 (min)
Your answer should be a plain number; it is taken to be in min.

The following compounds have reported results that may help.
compound="CC(C)(C)c1cc2ccccc2c2c1C=CC1(O2)C2(Cl)CCC1(Cl)CC2 (centres unmarked)" measurement_label="Fading rate t1/2" unit=min numeric_value=1.3
compound="CCC(C)c1cc2ccccc2c2c1C=CC(c1ccc(OC)cc1)(c1ccc(OC)c(C#N)c1)O2 (centres unmarked)" measurement_label="Fading rate t1/2" unit=min numeric_value=2.4
compound="CC(C)c1cc2ccccc2c2c1C=CC1(O2)C2CCC1CC2 (centres unmarked)" measurement_label="Fading rate t1/2" unit=min numeric_value=1.0
compound="CC(C)c1cc2ccccc2c2c1C=CC(c1ccccc1)(c1ccc(OC(F)(F)F)cc1)O2 (centres unmarked)" measurement_label="Fading rate t1/2" unit=min numeric_value=5.2
compound=CCCc1cc2ccccc2c2c1C=CC(c1ccc(OC)cc1)(c1ccc(OC)cc1)O2 measurement_label="Fading rate t1/2" unit=min numeric_value=4.5
compound=CC(C)(C)c1cc2ccccc2c2c1C=CC(c1ccccc1)(c1ccccc1)O2 measurement_label="Fading rate t1/2" unit=min numeric_value=3.6
compound="CC(C)(C)c1cc2ccccc2c2c1C=CC(c1ccccc1)(c1ccc(OC(F)(F)F)cc1)O2 (centres unmarked)" measurement_label="Fading rate t1/2" unit=min numeric_value=3.2

Now look at this entry.
Query: # Fading rate t1/2 lookup, item CCCc1cc2c(CC)cc(OCC)cc2c2c1C=CC(c1ccc(OC)cc1)(c1cccs1)O2 (centres unmarked)
Response: 5.2

* * *

Test: Photochromic properties of cast polymer (2 mm thick) under xenon lamp irradiation for 120 seconds
Format: physicochemical
Conditions: chromene composition, or other chromene C1-C4, non-irradiated; Table 6
measurement_label: Initial color ε(0)

The following molecules have reported results that may help.
molecule="C1=CC2(CC3CCC2C3)Oc2c1ccc1ccccc21 (stereo not shown) [Compound C1, reference compound]" measurement_label="Initial color ε(0)" numeric_value=0.01
molecule="C1=CC(c2ccccc2)(c2ccccc2)Oc2ccc3ccccc3c21 [Compound C4, 3,3-Diphenyl-3H-benzo(f)chromene, reference compound]" measurement_label="Initial color ε(0)" numeric_value=0.01

a. Cc1c2c(c3ccccc3c1C)OC(c1ccccc1)(c1ccccc1)C=C2 [Compound C3, reference compound]
b. CCOC(=O)c1c2c(c3ccccc3c1C)OC(c1ccccc1)(c1ccccc1)C=C2 [Compound C2, reference compound]
Query: Of a and b , which carries the smaller reported Initial color ε(0) figure? Provide the label of your selected option as the answer.
Response: a
(a: 0.01, b: 0.02)

* * *

Assay: Aging promotion testing: sunlight 30 min / fading one hour cycles, 10 days (durability, coloring degree)
Type: physicochemical
Settings: chromene composition, or other chromene C1-C4, 10 days aging; Table 6
measurement_label: Durability (%)

molecule="C1=CC(c2ccccc2)(c2ccccc2)Oc2ccc3ccccc3c21 [Compound C4, 3,3-Diphenyl-3H-benzo(f)chromene, reference compound]" measurement_label=Durability numeric_value=95
molecule="Cc1c2c(c3ccccc3c1C)OC(c1ccccc1)(c1ccccc1)C=C2 [Compound C3, reference compound]" measurement_label=Durability numeric_value=95
molecule="C1=CC2(CC3CCC2C3)Oc2c1ccc1ccccc21 (stereo not shown) [Compound C1, reference compound]" measurement_label=Durability numeric_value=90
molecule="CCOC(=O)c1c2c(c3ccccc3c1C)OC(c1ccccc1)(c1ccccc1)C=C2 [Compound C2, reference compound]" measurement_label=Durability numeric_value=95

* * *

Test: Photochromic properties of cast polymer (2 mm thick) under xenon lamp irradiation for 120 seconds
Format: physicochemical
Conditions: chromene composition, or other chromene C1-C4, 120 seconds; Table 6
measurement_label: Color density ε(120)-ε(0)

molecule="CCOC(=O)c1c2c(c3ccccc3c1C)OC(c1ccccc1)(c1ccccc1)C=C2 [Compound C2, reference compound]" measurement_label="Color density ε(120)-ε(0)" numeric_value=0.9

a. C1=CC2(CC3CCC2C3)Oc2c1ccc1ccccc21 (stereo not shown) [Compound C1, reference compound]
b. C1=CC(c2ccccc2)(c2ccccc2)Oc2ccc3ccccc3c21 [Compound C4, 3,3-Diphenyl-3H-benzo(f)chromene, reference compound]
Query: Of a and b , which carries the smaller reported Color density ε(120)-ε(0) figure? Provide the label of your selected option as the answer.
Response: b

* * *

Test: Aging promotion testing: sunlight 30 min / fading one hour cycles, 10 days (durability, coloring degree)
Type: physicochemical
Conditions: YI(10)-YI(0), single chromene compound in polymer, 10 days aging; Table 5
measurement_label: Change in the coloring degree ΔYI

The following compounds have reported results that may help.
compound="COc1ccc(C2(c3cccs3)C=Cc3c(C)cc4ccccc4c3O2)cc1 (centres unmarked)" numeric_value=2.7
compound="CC(C)(C)c1cc2ccccc2c2c1C=CC1(O2)C2(Cl)CCC1(Cl)CC2 (centres unmarked)" numeric_value=4.0
compound="CC(C)(C)c1cc2ccccc2c2c1C=CC(c1ccccc1)(c1cccs1)O2 (centres unmarked)" numeric_value=1.8
compound=CCc1cc2ccccc2c2c1C=CC(c1ccc(OC)cc1)(c1ccc(OC)cc1)O2 numeric_value=2.5

A. CC(C)c1cc2ccccc2c2c1C=CC(c1ccccc1)(c1ccc3ccccc3c1)O2 (centres unmarked)
B. CCC(C)c1cc2ccccc2c2c1C=CC(c1ccc(OC)cc1)(c1ccc(OC)c(C#N)c1)O2 (centres unmarked)
Query: Hi team, can someone confirm which has the larger Change in the coloring degree ΔYI: A or B ? Thanks. Provide the label of your selected option as the answer.
Response: B
(B: 5.0, A: 1.7)

A. COc1ccc(C2(c3ccc(OC)c(F)c3)C=Cc3c(C)cc4ccccc4c3O2)cc1F
B. CCC(C)(CC)c1cc2ccccc2c2c1C=CC(c1ccc(OC)c(F)c1)(c1ccc(OC)c(F)c1)O2
Query: Of A and B , which carries the smaller reported Change in the coloring degree ΔYI figure? Provide the label of your selected option as the answer.
Response: B
(B: 1.5, A: 2.3)

I. COc1ccc(C2(c3ccco3)C=Cc3c(C)cc4c(F)ccc(C)c4c3O2)cc1 (centres unmarked)
II. COc1ccc(C2(c3ccc(OC)cc3)C=Cc3c(C(C)C)cc4ccccc4c3O2)cc1
III. CC(C)c1cc2ccccc2c2c1C=CC1(O2)C2CCC1CC2 (centres unmarked)
Query: Sequence the entries by Change in the coloring degree ΔYI, beginning with the highest number. Record the ranking as a list of labels in the requested order.
Response: III, I, II

* * *

Experiment: Aging promotion testing: sunlight 30 min / fading one hour cycles, 10 days (durability, coloring degree)
Format: physicochemical
Settings: single chromene compound in polymer, 10 days aging; Table 5
measurement_label: Light resistance (durability) (%)

compound="CC(C)c1cc2cc(O)ccc2c2c1C=CC(c1cccs1)(c1cccs1)O2 [Compound 9]" numeric_value=94
compound="CCC(C)c1cc2ccccc2c2c1C=CC1(O2)C2CCCC1CCC2 (centres unmarked) [Compound 23]" numeric_value=92
compound="CC(C)(C)c1cc2ccccc2c2c1C=CC1(O2)C2CCCC1CCC2 (centres unmarked) [Compound 2]" numeric_value=96
compound="CC(C)(C)c1cc2ccccc2c2c1C=CC1(CC3CCC1C3)O2 (centres unmarked) [Compound 18]" numeric_value=95
compound="COc1ccc(C2(c3ccc(OC)cc3)C=Cc3c(C(C)C)cc4ccccc4c3O2)cc1 [Compound 13]" numeric_value=97
compound="COc1ccc(C2(c3ccc(OC)c(F)c3)C=Cc3c(C)cc4ccccc4c3O2)cc1 (centres unmarked) [Compound 34]" numeric_value=97
compound="COc1ccc(C2(c3ccc(OC)c(F)c3)C=Cc3c(C)cc4ccccc4c3O2)cc1F [Compound 27]" numeric_value=99
compound="CCC(C)(C)c1cc2ccccc2c2c1C=CC(c1ccc(OC)cc1)(c1ccco1)O2 (centres unmarked) [Compound 3]" numeric_value=95
compound="CC(C)c1cc2ccccc2c2c1C=CC(c1ccccc1)(c1ccc(OC(F)(F)F)cc1)O2 (centres unmarked) [Compound 16]" numeric_value=99
compound="CCC(C)(CC)c1cc2ccccc2c2c1C=CC(c1ccc(OC)c(F)c1)(c1ccc(OC)c(F)c1)O2 [Compound 5]" numeric_value=99
compound="COc1ccc(C2(c3ccc(OC(F)(F)F)cc3)C=Cc3c(C(C)C)cc4ccccc4c3O2)cc1 (centres unmarked) [Compound 15]" numeric_value=96
compound="COc1ccc(C2(c3ccco3)C=Cc3c(C)cc4ccccc4c3O2)cc1F (centres unmarked) [Compound 31]" numeric_value=95
compound="CCCCc1cc2cccc(Br)c2c2c1C=CC(c1ccc(OC)c(F)c1)(c1ccc(OC)c(F)c1)O2 [Compound 38]" numeric_value=96
compound="CC(C)c1cc2ccccc2c2c1C=CC1(O2)C2CC3CC(C2)CC1C3 (centres unmarked) [Compound 25]" numeric_value=92
compound="COc1ccc(C2(c3ccc(OC)cc3)C=Cc3c(C)cc4ccc(C)cc4c3O2)cc1 [Compound 36]" numeric_value=98
compound="CC(C)c1cc2ccccc2c2c1C=CC(c1ccccc1)(c1ccccc1)O2 [Compound 12]" numeric_value=99
compound="CC(=O)Oc1ccc2c3c(c(C(C)C)cc2c1)C=CC(c1ccc(C)cc1)(c1ccc(C)cc1)O3 [Compound 10]" numeric_value=93
